system: Puccinia recondita tritici (PUCCRT); assay: Leaf rust of wheat foliar protectant test; type: in vivo; details: 200 ppm foliar, inoculated one day after treatment, read-out: Activity against fungal diseases PUCCRT
The entries below come with measured pest or weed control at 200 ppm values attached.

MOL SMILES	pest or weed control at 200 ppm
[O-][n+]1ccc(Oc2ccc(CCNc3ncnc4c(F)ccc(F)c34)cc2)c(C(F)(F)F)c1	80 to 100%
Fc1cnc(C(F)(F)F)c(F)c1Oc1ccc(CCNc2ncnc3c(F)ccc(F)c23)cc1	80 to 100%
N#Cc1cc(CCNc2ncnc3c(F)ccc(F)c23)ccc1Oc1cc(C(F)(F)F)ccn1	80 to 100%
COc1cc(CCNc2ncnc3c(F)ccc(F)c23)ccc1Oc1c(Cl)cnc(C(Cl)(Cl)Cl)c1Cl	80 to 100%
Fc1ccc(F)c2c(NCCc3ccc(Oc4cc(C(F)(F)F)ccn4)c(Br)c3)ncnc12	80 to 100%

Consider the compound shown here: CCc1cc(CCNc2ncnc3c(F)ccc(F)c23)ccc1Oc1cc(C(F)(F)F)ccn1 What is its recorded pest or weed control at 200 ppm?
80 to 100%

Param item: COc1cc(CCNc2ncnc3c(F)ccc(F)c23)ccc1Oc1cc(C(F)(F)F)cc[n+]1[O-]
80 to 100%

Try this compound next: COc1cc(CCNc2ncnc3c(F)ccc(F)c23)ccc1O
0 to 49%

---

tested on: Puccinia recondita tritici (PUCCRT); experiment: Leaf rust of wheat foliar protectant test; format: in vivo; conditions: 200 ppm foliar, inoculated one day after treatment, read-out: Activity against fungal diseases PUCCRT
Entries and their pest or weed control at 200 ppm

# returns recorded pest or weed control at 200 ppm (system: Puccinia recondita tritici (PUCCRT)) for COc1cc(CCNc2ncnc3c(F)ccc(F)c23)ccc1Oc1cc(C(F)(F)F)ncn1
80 to 100%

Moving on to Cc1cc(CCNc2ncnc3c(F)ccc(F)c23)ccc1Oc1cc(C(F)(F)F)ncn1
80 to 100%

---

test system: Puccinia recondita tritici (PUCCRT); assay: Leaf rust of wheat foliar protectant test; type: in vivo; conditions: 200 ppm foliar, inoculated one day after treatment, read-out: Activity against fungal diseases PUCCRT
// pest or weed control at 200 ppm lookup, one value per entry

# example entries with known answers
COMPOUND	TEST VALUE
COc1ccc(C(C)Nc2ncnc3c(F)ccc(F)c23)cc1 (centres unmarked)	80 to 100%
Oc1ccc(CCNc2ncnc3c(F)ccc(F)c23)cc1Br	0 to 49%
Oc1ccc2c(c1)CC(Nc1ncnc3c(F)ccc(F)c13)C2 (centres unmarked)	50 to 79%
COC(=O)c1cnc(Oc2ccc(CCNc3ncnc4c(F)ccc(F)c34)cc2)cc1C(F)(F)F	80 to 100%

pest or weed control at 200 ppm of COc1ccc(CCNc2ncnc3c(F)ccc(F)c23)c(C)c1C on Puccinia recondita tritici (PUCCRT)?
80 to 100%

---

tested on: Pseudoperonospora cubensis (PSPECU); experiment: Cucumber downy mildew foliar protectant test; type: in vivo; conditions: 200 ppm foliar, inoculated one day after treatment, read-out: Activity against fungal diseases PSPECU
Listing: pest or weed control at 200 ppm of selected compounds

Lab note: need pest or weed control at 200 ppm with Pseudoperonospora cubensis (PSPECU) for entry COc1ccc(CCNc2ncnc3c(F)cc(F)c(F)c23)cc1C , please look it up.
50 to 79%

Same question, Fc1cc(F)c2ncnc(NCCc3ccc(Oc4ccc(C(F)(F)F)cn4)cc3)c2c1F this time
80 to 100%

Check COc1cc(CCNc2ncnc3c(F)ccc(F)c23)ccc1O too.
50 to 79%

Next record, please: COc1cc(CCNc2ncnc3c(F)ccc(F)c23)ccc1Oc1ncc(C(F)(F)F)cc1F
80 to 100%

// repeat for Fc1ccc(F)c2c(NCCc3ccc(Oc4cc(Cl)ncn4)cc3)ncnc12 and report
80 to 100%
